# Population Membrane Permeable-Phenotype (%) values compiled below
# Tested on: U2OS
# experimentalDetails: Multiplex assay against U2OS
# Format: toxicity, cell-based
# conditionNotes: human, 12 h, 10 µM, compound concentration 10 uM, replicate 1

| compound | assayValue |
| --- | --- |
| CSc1nc(NC2CCCC2)c([N+](=O)[O-])c(NC2CCCC2)n1 | 9% |

Param item = CN(C)C/C=C/C(=O)Nc1ccc(C(=O)N2CCCC(Nc3ncc(Cl)c(-c4c[nH]c5ccccc45)n3)C2)cc1 (configuration not stated) ; retrieve measured Population Membrane Permeable-Phenotype (%).
33%

Param item = "COc1ccc2c(c1OCc1ccccc1)C[C@@H](C(=O)O)N(C(=O)C(c1ccccc1)c1ccccc1)C2" ; retrieve measured Population Membrane Permeable-Phenotype (%).
6%

Param item = Cl.Cl.OCCOCCN1CCN(C(c2ccccc2)c2ccc(Cl)cc2)CC1 (configuration not stated) [HYDROXYZINE HYDROCHLORIDE] ; retrieve measured Population Membrane Permeable-Phenotype (%).
9%

Param item = "COc1cc(OC2CCN(C(C)=O)CC2)ccc1C(=O)N1CCC(N2C(=O)OCc3ccccc32)CC1" ; retrieve measured Population Membrane Permeable-Phenotype (%).
18%

Param item = "COc1cc(C(=O)N2CC[C@@H](O)[C@@H](N)C2)cc2nc(-c3cc4ccccc4n3CC3CC3)n(C)c12.Cl" ; retrieve measured Population Membrane Permeable-Phenotype (%).
75%

Param item = "COc1ccc2[nH]c(I)c(CCNC(C)=O)c2c1" ; retrieve measured Population Membrane Permeable-Phenotype (%).
2%

====

# System: Fibroblast
# experimentalDetails: Multiplex assay against human fibroblast
# Assay type: toxicity, cell-based
# conditionNotes: 24 h, 10 µM, compound concentration 10 uM, replicate 2
So basically: Population Healthy Nuclei (%) at 50% or higher? That is 1. Lower than 50%? That is 0.

Answered cases to consult:
| molecule | assignedLabel |
| --- | --- |
| C[C@H](NC(=O)CNC(=O)c1cccc(Cl)c1)c1ccccc1 | 0 |
| OCCCNc1cc(-c2ccnc(Nc3cccc(Cl)c3)n2)ccn1 | 0 |

Please indicate if the recorded Population Healthy Nuclei (%) for "N[C@](CC1c2ccccc2Oc2ccccc21)(C(=O)O)[C@H]1C[C@@H]1C(=O)O" meets or exceeds 50%.
1

Please indicate if the recorded Population Healthy Nuclei (%) for O=C(NCCNCC(O)COc1ccc(O)cc1)N1CCOCC1.O=C(NCCNCC(O)COc1ccc(O)cc1)N1CCOCC1.O=C(O)/C=C/C(=O)O (configuration not stated) [XAMOTEROL FUMARATE] meets or exceeds 50%.
1

Please indicate if the recorded Population Healthy Nuclei (%) for O=c1ccc2ccc(OCCCCN3CCN(c4cccc5sccc45)CC3)cc2[nH]1 [BREXPIPRAZOLE] meets or exceeds 50%.
0

Please indicate if the recorded Population Healthy Nuclei (%) for CSc1nc(NC2CCCC2)c([N+](=O)[O-])c(NC2CCCC2)n1 [GS-39783] meets or exceeds 50%.
1

Please indicate if the recorded Population Healthy Nuclei (%) for COCCCN1CCC(NC(=O)c2cc(Cl)c(N)c3c2OCC3)CC1 [PRUCALOPRIDE] meets or exceeds 50%.
1

Please indicate if the recorded Population Healthy Nuclei (%) for "COc1cc(OC2CCN(C(C)=O)CC2)ccc1C(=O)N1CCC(N2C(=O)OCc3ccccc32)CC1" meets or exceeds 50%.
0

Please indicate if the recorded Population Healthy Nuclei (%) for O=c1nc2[nH]c3ccccc3nc-2c(=O)[nH]1 [ALLOXAZINE] meets or exceeds 50%.
0

Please indicate if the recorded Population Healthy Nuclei (%) for COc1ccc2c(c1OCc1ccccc1)C[C@@H](C(=O)O)N(C(=O)C(c1ccccc1)c1ccccc1)C2 [OLODANRIGAN] meets or exceeds 50%.
1

====

# Population Hoechst High Intensity Objects (%) values compiled below
# Tested on: Fibroblast
# experimentalDetails: Multiplex assay against human fibroblast
# Format: toxicity, cell-based
# conditionNotes: 12 h, 10 µM, compound concentration 10 uM, replicate 1
Give just the number in %; leave the unit off.

| compound | assayValue |
| --- | --- |
| COC(c1ccccc1)(c1ccccc1)[C@H](Oc1nc(C)cc(C)n1)C(=O)O | 5 |
| CN(C)C(=O)Cn1cc(-c2ccc(-c3nnc4ccccn34)cc2)cn1 | 3 |
| N[C@](CC1c2ccccc2Oc2ccccc21)(C(=O)O)[C@H]1C[C@@H]1C(=O)O | 1 |

Param item = O=C(NCCNCC(O)COc1ccc(O)cc1)N1CCOCC1.O=C(NCCNCC(O)COc1ccc(O)cc1)N1CCOCC1.O=C(O)/C=C/C(=O)O (centres undefined) [XAMOTEROL FUMARATE] ; retrieve measured Population Hoechst High Intensity Objects (%).
4

====

# Tested on: U2OS
# experimentalDetails: Multiplex assay against U2OS
# Assay type: toxicity, cell-based
# conditionNotes: human, 48 h, 1 µM, compound concentration 1 uM, replicate 1
measure: Population Fragmented Nuclei (%)
Give just the number in %; leave the unit off.

| compound | readoutUnit | Population Fragmented Nuclei (%) |
| --- | --- | --- |
| C[C@H](NC(=O)CNC(=O)c1cccc(Cl)c1)c1ccccc1 | % | 18 |
| CSc1nc(NC2CCCC2)c([N+](=O)[O-])c(NC2CCCC2)n1 | % | 18 |
| Nc1nc(-c2ccco2)c2cnn(Cc3ccccc3F)c2n1 | % | 17 |

Param item = "COc1c(Nc2ccc(S(C)(=O)=O)nc2C)ncnc1OC1CCN(C(=O)OC(C)C)CC1" ; retrieve measured Population Fragmented Nuclei (%).
19

Param item = "O=c1ccc2ccc(OCCCCN3CCN(c4cccc5sccc45)CC3)cc2[nH]1" ; retrieve measured Population Fragmented Nuclei (%).
21

Param item = COCCCN1CCC(NC(=O)c2cc(Cl)c(N)c3c2OCC3)CC1 [PRUCALOPRIDE] ; retrieve measured Population Fragmented Nuclei (%).
20

Param item = "O=c1nc2[nH]c3ccccc3nc-2c(=O)[nH]1" ; retrieve measured Population Fragmented Nuclei (%).
19

Param item = "CCCCC[C@H](O)/C=C/[C@H]1[C@H](O)CC(=O)[C@@H]1CCCCCCC(=O)O" ; retrieve measured Population Fragmented Nuclei (%).
22

Param item = "CCc1nn2c(C)cc(C)nc2c1Cc1ccc(-c2nnc(C3CCNCC3)o2)cc1" ; retrieve measured Population Fragmented Nuclei (%).
17

Param item = CN1CCN2c3ccccc3Cc3ccccc3C2C1.Cl (centres undefined) [MIANSERIN HYDROCHLORIDE] ; retrieve measured Population Fragmented Nuclei (%).
28

Param item = "C[C@@H]1CC(=O)Nc2cccc(-c3ccc4c(c3)c(-c3cnn(C)c3)nn4C)c2N1" ; retrieve measured Population Fragmented Nuclei (%).
19

====

# Tested on: Fibroblast
# experimentalDetails: Multiplex assay against human fibroblast
# Assay type: toxicity, cell-based
# conditionNotes: 48 h, 10 µM, compound concentration 10 uM, replicate 1
measure: Population Hoechst High Intensity Objects (%)
Give just the number in %; leave the unit off.

Param item = Cc1ccc(OCC(O)C(C)NC(C)C)c2c1CCC2.Cl (centres undefined) ; retrieve measured Population Hoechst High Intensity Objects (%).
1

Param item = CCC(=O)OCC(=O)[C@@]1(OC(=O)CC)[C@@H](C)C[C@H]2[C@@H]3CCC4=CC(=O)C=C[C@]4(C)[C@@]3(Cl)[C@@H](O)C[C@@]21C [BECLOMETHASONE DIPROPIONATE] ; retrieve measured Population Hoechst High Intensity Objects (%).
6

Param item = "CSc1nc(NC2CCCC2)c([N+](=O)[O-])c(NC2CCCC2)n1" ; retrieve measured Population Hoechst High Intensity Objects (%).
2

Param item = "Nc1nc(-c2ccco2)c2cnn(Cc3ccccc3F)c2n1" ; retrieve measured Population Hoechst High Intensity Objects (%).
9

====

# Population Normal (%) values compiled below
# Tested on: U2OS
# experimentalDetails: Multiplex assay against U2OS
# Type: toxicity, cell-based
# conditionNotes: human, 12 h, 10 µM, compound concentration 10 uM, replicate 2
Give just the number in %; leave the unit off.

Below, 5 compounds whose answers are already recorded.
| compound | testedSystem | assayValue |
| --- | --- | --- |
| CCCCCCNC(=O)Nc1ccc(S(=O)(=O)Nc2ccc(CCNC[C@H](O)COc3ccc(O)cc3)cc2)cc1 | U2OS | 97 |
| O=C(Nc1cc(-c2ccccc2)nn1-c1ccccc1F)c1ccc([N+](=O)[O-])cc1 | U2OS | 100 |
| CN1CCN(c2ccc(Nc3c4ccccc4nc4ccccc34)cc2)CC1.Cl.Cl.O | U2OS | 97 |
| COc1cc2nc(N3CCN(C(=O)COc4c(OC)cccc4C(C)C)CC3)nc(N)c2cc1OC.Cl.Cl | U2OS | 99 |
| COc1ccc2[nH]c(I)c(CCNC(C)=O)c2c1 | U2OS | 99 |

Param item = Cc1ccc(OCC(O)C(C)NC(C)C)c2c1CCC2.Cl (stereo not drawn) ; retrieve measured Population Normal (%).
99

Param item = CN1CCN2c3ccccc3Cc3ccccc3C2C1.Cl (stereo not drawn) [MIANSERIN HYDROCHLORIDE] ; retrieve measured Population Normal (%).
98

Param item = "O=c1nc2[nH]c3ccccc3nc-2c(=O)[nH]1" ; retrieve measured Population Normal (%).
98
